Some sequences, each annotated with its measured protein stability index.
experiment: protein stability index of a GFP-peptide fusion (GPS, HEK-293T) (PSI 1-6); higher = more stable; details: treatment: DMSO; c terminus: a fixed tail appended;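 further: 24-mer peptide tiles fused after GFP, lentivirally expressed, FACS-sorted into six equal bins by GFP/DsRed ratio, decoded by Illumina sequencing, PSI is the read-weighted mean bin number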
Lab note: record the figure alone, no unit after it.

As a guide, the following entries are already answered.
Reported protein stability index of SADVNARDKNWQTPLHVAAANKAV [ANKRD44] : 4.18

The sequence listed as FTEYQASAFGNVKLVVHDCPVWDI [RHOBTB3] shows protein stability index equal to 2.54

Record QGLEQFINKIAGHPLAQNERCLHM [SNX12] . Reported protein stability index: 2.27

Item: PTLGGGFHVNLGKESRAQTLQNGR [BRF1] | protein stability index: 4.04

protein stability index measured on ALSEILRIGKRPDLLTFVQNLCKG [NEUROD6] = 2.49

Next up:
protein stability index reading for LGGEQAEEKAFESVIEPVQESSFR [MIA2] : 5.16

Where these numbers come from: the supplement of paper PMC10567573
